Catalogue of melting point readings, one per entry.
recordedMetric: melting point

* Cc1c(NC(=O)C(CSC(=O)Cc2cccs2)Cc2ccccc2)cccc1C(=O)O (stereo unspecified) | 134 to 137 °C
* O=C(O)CCCCc1c([N+](=O)[O-])cc(O)c(O)c1[N+](=O)[O-] | 135 to 139 °C
* CCCc1c(OCCCCCOc2ccc3c(c2CCC)OC(C(=O)O)CC3)ccc(CC)c1O (stereo unspecified) | 101 to 102 °C
* CCCCOc1nc(N)c2[nH]c(=O)n(CCNc3cccc(CC(=O)OC)c3)c2n1 | 222 to 223 °C
* CCCc1c(OCCOc2ccc(N)cc2)ccc(C(C)=O)c1O | 73 to 74 °C
* CC(C)Nc1cccnc1N(C)CCOC(=O)c1cc2ccccc2[nH]1 | 130 to 131 °C
